Tested on: HepG2 cells
Assay: Cellular uptake / binding of FAM-labeled ligands to HepG2 cells (flow cytometry, proportion of FAM positive cells)
Format: cell-based, human
Details: 1.6 nM ligand, 24 h, HepG2
Use 6% as the dividing line for Efficiency (%) of cellular uptake (percentage of ligand-bound HepG2 cells), with the line itself on the criterion met side and lower values as criterion not met.

## Input Tell me whether Efficiency (%) of cellular uptake (percentage of ligand-bound HepG2 cells) is at least 6% here: 5-FAM-CPMB-0014: CPS-001 cyclic peptide scaffold, Gal-4 GalNAc linker, 5-FAM label; FIG. 14D (KEKGKG; cyclised or stapled)
## Output criterion not met

## Input Could you tell me if the measured Efficiency (%) of cellular uptake (percentage of ligand-bound HepG2 cells) of 5-FAM-CPMB-0033: CPS-003 cyclic peptide scaffold, Gal-3 GalNAc linker, 5-FAM label; FIG. 14J (KEKGKG; D-residues; cyclised or stapled) reaches 6% or more?
## Output criterion not met

## Input Does Efficiency (%) of cellular uptake (percentage of ligand-bound HepG2 cells) meet or surpass 6% for 5-FAM-CPMB-0021: CPS-002 cyclic peptide scaffold, Gal-1 GalNAc linker, 5-FAM label; FIG. 14F (KEKGKG; D-residues; cyclised or stapled) ?
## Output criterion met

## Input Hi team, for 5-FAM-CPMB-0015: CPS-001 cyclic peptide scaffold, Gal-5 GalNAc linker, 5-FAM label; FIG. 14E (KEKGKG; cyclised or stapled) , is the recorded Efficiency (%) of cellular uptake (percentage of ligand-bound HepG2 cells) at or above 6%?
## Output criterion met

## Input Reported Efficiency (%) of cellular uptake (percentage of ligand-bound HepG2 cells) at or above 6%? 5-FAM-CPMB-0031-Ac: negative control, cyclic peptide w/o tri-GalNAc; CPS-003, Gal-1; FIG. 14R (KEKGKG; D-residues; cyclised or stapled) [reference compound]
## Output criterion not met

## Input Hello, I need to know if 5-FAM-CPMB-0011: CPS-001 cyclic peptide scaffold, Gal-1 GalNAc linker, 5-FAM label; FIG. 14A (KEKGKG; cyclised or stapled) has measured Efficiency (%) of cellular uptake (percentage of ligand-bound HepG2 cells) not below 6%. Thanks!
## Output criterion not met

Now examine the next entry.
## Input Identify whether the reported Efficiency (%) of cellular uptake (percentage of ligand-bound HepG2 cells) of the following substance is 6% or greater: 5-FAM-CPMB-0035: CPS-003 cyclic peptide scaffold, Gal-5 GalNAc linker, 5-FAM label; FIG. 14L (KEKGKG; D-residues; cyclised or stapled)
## Output criterion met

# credit: patent US20240218023A1
